- Measured Target: T1, EGFR (soluble extracellular domain) (human, UniProt P00533)
- T1 construct: soluble extracellular domain; also called Human EGFR extracellular domain, R&D Systems 1095-ER
- Assay Method Text: BLI (Octet), antibody on anti-human Fc biosensors, soluble EGFR ECD as analyte
Property Measured: koff (s⁻¹)
Dear colleague, please return just the value in s⁻¹, with no unit written.

Binder	koff, s⁻¹
oa225-M (antibody, V domains shown, one-armed (monovalent) anti-EGFR SEED molecule) VH: EVQLVQSGAEVKKPGASVKVSCKASGFSLTNYGVHWMRQAPGQGLEWIGVIWSGGNTDYNTPFTSRVTITSDKSTSTAYMELSSLRSEDTAVYYCARALTYYDYEFAYWGQGTLVTVSS VL: DIQMTQSPSSLSASVGDRVTITCRASQSIGTNIHWYQQKPGKAPKLLIKYASESISGVPSRFSGSGYGTDFTLTISSLQPEDVATYYCQQNYNWPTTFGQGTKVEIK	0.016

[Q] Given the entry oa 425 (antibody, V domains shown, one-armed (monovalent) anti-EGFR SEED molecule) VH: QVQLVQSGAEVKKPGASVKVSCKASGYTFTSHWMHWVRQAPGQGLEWIGEFNPSNGRTNYNEKFKSKATMTVDTSTNTAYMELSSLRSEDTAVYYCASRDYDYDGRYFDYWGQGTLVTVSS VL: DIQMTQSPSSLSASVGDRVTITCSASSSVTYMYWYQQKPGKAPKLLIYDTSNLASGVPSRFSGSGSGTDYTFTISSLQPEDIATYYCQQWSSHIFTFGQGTKVEIKR , report its measured koff.
[A] 0.012

[Q] Please report the recorded koff for oa 225-L (antibody, V domains shown, one-armed (monovalent) anti-EGFR SEED molecule) VH: EVQLVQSGAEVKKPGASVKVSCKASGFSLTNYGVHWMRQAPGQGLEWIGVIWRGGNTDYNTPFTSRVTITSDKSTSTAYMELSSLRSEDTAVYYCARALTYYDYEFAYWGQGTLVTVSS VL: DIQMTQSPSSLSASVGDRVTITCRASQSIGTNIHWYQQKPGKAPKLLIKYASESISGVPSRFSGSGYGTDFTLTISSLQPEDVATYYCQQNNNWPTTFGQGTKVEIK .
[A] 0.14

[Q] I'd like to know its koff. The binder in question is matuzumab (425) (antibody, V domains shown) VH: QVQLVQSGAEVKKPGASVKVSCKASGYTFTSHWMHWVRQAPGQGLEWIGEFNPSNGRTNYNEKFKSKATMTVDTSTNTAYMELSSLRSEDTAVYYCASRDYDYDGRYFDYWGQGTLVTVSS VL: DIQMTQSPSSLSASVGDRVTITCSASSSVTYMYWYQQKPGKAPKLLIYDTSNLASGVPSRFSGSGSGTDYTFTISSLQPEDIATYYCQQWSSHIFTFGQGTKVEIKG
[A] 0.0078

[Q] Consider the binder shown here: oa 225-H (antibody, V domains shown, one-armed (monovalent) anti-EGFR SEED molecule) VH: EVQLVQSGAEVKKPGASVKVSCKASGFSLTNYGVHWMRQAPGQGLEWIGVIWSGGNTDYNTPFTSRVTITSDKSTSTAYMELSSLRSEDTAVYYCARALDYYDYEFAYWGQGTLVTVSS VL: DIQMTQSPSSLSASVGDRVTITCRASQSIGTNIHWYQQKPGKAPKLLIKYASESISGVPSRFSGSGYGTDFTLTISSLQPEDVATYYCQQNNEWPNTFGQGTKVEIK What is its recorded koff?
[A] 0.00049
